Target: human LSD1(171-852) (Homo sapiens, UniProt O60341)
Construct: to give hLSD1(171-852) purified product; made in house; host or cells: Escherichia coli C43(DE3) pLysS
Assay: Measurement of LSD1 inhibitory activity (time-resolved fluorescence, biotin-histone H3 mono methylated K4 peptide)
Format: biochemical
Details: read-out: LSD1 IC50 value
Counter-ions that a name gives are not always drawn.
QUANTITY_KIND: IC50 (nM)

[P] O=C(Nc1ccc([C@@H]2C[C@H]2NCc2ccccc2)cc1)c1cccc(NCc2ccccc2)c1 (relative stereo) [Example 29]
[Q] O=C(Nc1ccc([C@@H]2C[C@H]2NCc2ccccc2)cc1)c1cccc(CCc2ccccc2)c1 (relative stereo) [Example 34]
[R] O=C(N[C@@H](Cc1ccccc1)C(=O)Nc1ccc(C2CC2NCc2ccccc2)cc1)OCc1ccccc1 (stereo in doubt) [Example 57, hydrochloride]
In: Lab note: arrange the 3 molecules above from lowest to highest IC50. Write out the labels following the order that was asked for.
Out: P, Q, R
